- Test system: SK-MEL-2
- TEST_PROTOCOL: NCI tumour cell line growth inhibition, 48 h
Activity calls are given as the source filed them. Rule as the data show it: active = GI50 up to about 1.1 µM and inactive = higher.
Measured GI50, listed per entry.

Observe how each entry below is paired with its result.
>>> reported("CN(C)CCNc1c([N+](=O)[O-])cc2c3c(cccc13)C(=O)N(CCN(C)C)C2=O")
"1.77 µM (inactive)"
>>> reported("[O-][Cl+3]([O-])([O-])O.c1ccc(/N=c2\\nc(N3CCOCC3)ss2)cc1")
"17.9 µM (inactive)"
>>> reported("O=C1OC(c2ccccc2)=N/C1=C\\c1ccc(F)cc1")
"> 100 µM (inactive)"
>>> reported("c1ccc2c[n+](CCCC[n+]3ccc4ccccc4c3)ccc2c1")
"> 100 µM (inactive)"
>>> reported("CCOC(=O)C1S/C(=N\\c2ccc(C)c(C)c2)N=C1C (stereo not drawn)")
"> 100 µM (inactive)"
>>> reported("CNC(=O)OCc1nccc2c(C)c3[nH]c4ccc(OC)cc4c3cc12")
"8.91 µM (inactive)"
>>> reported("O=C1Nc2ccccc2S/C1=C\\c1cccc(C(F)(F)F)c1")
"> 100 µM (inactive)"

Query (compound): O=C1C=CC[C@H]2O[C@@H](COC(=O)Cc3ccccc3)C[C@H]2O1 ; field requested: GI50
51.5 µM (inactive)
